- measurement protocol: Caco-2 bidirectional (ABBA) permeability
- Type: in vitro ADME
- setup conditions: human, read-out: Caco2 Bidirectional (ABBA) Efflux Ratio
Entries annotated with measured efflux ratio
recorded endpoint: efflux ratio

>>> result_value("N#C[C@@H]1C[C@@H]2C[C@@H]2N1C(=O)CNC(=O)c1ccnc2cc(C3(C#N)CC3)ccc12")
10
>>> result_value("N#C[C@@H]1C[C@@H]2C[C@@H]2N1C(=O)CNC(=O)c1ccnc2cc(C3CC3)ccc12")
1.8
>>> result_value("Cc1ccc2c(C(=O)NCC(=O)N3[C@H](C#N)C[C@@H]4C[C@@H]43)ccnc2c1")
0.8

---

- System: Rat Hepatocytes (rHep)
- measurement protocol: Metabolic stability in rat hepatocytes (rHep)
- Assay type: in vitro ADME
Rule for this label: label 1 means rHeps CLint is less than 7 μL/min/1E6; label 0 means rHeps CLint is at least 7 μL/min/1E6.

>>> assigned_label("CCc1ccc2nc(C)cc(C(=O)NCC(=O)N3[C@H](C#N)C[C@@H]4C[C@@H]43)c2c1")
"label 0"
>>> assigned_label("Cc1cc(C(=O)NCC(=O)N2[C@H](C#N)C[C@@H]3C[C@@H]32)c2cc(F)ccc2n1")
"label 1"
>>> assigned_label("CCOC1(c2ccc3c(C(=O)NCC(=O)N4[C@H](C#N)C[C@@H]5C[C@@H]54)ccnc3c2)CC1")
"label 0"
>>> assigned_label("N#C[C@@H]1C[C@@H]2C[C@@H]2N1C(=O)CNC(=O)c1ccnc2ccc(C3(C#N)CC3)cc12")
"label 1"
>>> assigned_label("N#C[C@@H]1C[C@@H]2C[C@@H]2N1C(=O)CNC(=O)c1ccnc2cc(C3(C(F)(F)F)CC3)ccc12")
"label 0"
>>> assigned_label("N#C[C@@H]1C[C@@H]2C[C@@H]2N1C(=O)CNC(=O)c1ccnc2cc(C3CC3)ccc12")
"label 0"
>>> assigned_label("N#C[C@@H]1C[C@@H]2C[C@@H]2N1C(=O)CNC(=O)c1ccnc2cc(COC(F)(F)F)ccc12")
"label 0"
>>> assigned_label("N#C[C@@H]1C[C@@H]2C[C@@H]2N1C(=O)CNC(=O)c1ccnc2cc(C3(C#N)CC3)ccc12")
"label 1"
>>> assigned_label("N#C[C@@H]1C[C@@H]2C[C@@H]2N1C(=O)CNC(=O)c1ccnc2cc(C(F)(F)F)ccc12")
"label 0"
>>> assigned_label("COc1ccc2c(C(=O)NCC(=O)N3[C@H](C#N)C[C@@H]4C[C@@H]43)cc(C)nc2c1")
"label 1"
>>> assigned_label("N#C[C@@H]1C[C@@H]2C[C@@H]2N1C(=O)CNC(=O)c1ccnc2cc(C(F)F)ccc12")
"label 1"
>>> assigned_label("N#C[C@@H]1C[C@@H]2C[C@@H]2N1C(=O)CNC(=O)c1ccnc2ccc(C(F)(F)F)cc12")
"label 1"
>>> assigned_label("Cc1ccc2nc(C)cc(C(=O)NCC(=O)N3[C@H](C#N)C[C@@H]4C[C@@H]43)c2c1")
"label 1"
>>> assigned_label("Cc1cc(C(=O)NCC(=O)N2[C@H](C#N)C[C@@H]3C[C@@H]32)c2cc(Br)ccc2n1")
"label 1"

The measured values listed here are drawn from patent US20230406840A1.
